test-name: log Pow* calculated by Formula 2 from log Pow and the polarity parameter P′(x) of the ethanol/water mixture
quantity-kind: log Pow* (P′ 70%)
Give bare numbers.

As a guide, the following entries are already answered.
molecule: CCCSSCCC [Dipropyldisulfide]
log Pow* (P′ 70%): 2.97
--
molecule: CC(C)CCO
log Pow* (P′ 70%): −1.57
--
molecule: CCCC(=O)OCC [Ethylbutyrate]
log Pow* (P′ 70%): −0.29

Quick one: give me log Pow* (P′ 70%) for each item below, same order please.
1. CCCCCC=O
2. CC(C)=CCCC(C)=CC=O
3. C=Cc1ccc(O)c(OC)c1
4. CCCCCCCC=O

1. 0.12
2. 2.02
3. 1.01
4. 1.83

----------
test-name: log Pow* calculated by Formula 2 from log Pow and the polarity parameter P′(x) of the ethanol/water mixture
test-settings: solvent ethanol, proportion 2%
quantity-kind: log Pow* (P′ 2%)
Numbers only.

As a guide, the following entries are already answered.
compound: CCC(C)CO (stereo not drawn)
log Pow* (P′ 2%): 1.14
--
compound: CC(=O)/C=C/C1C(C)=CCCC1(C)C (stereo not drawn)
log Pow* (P′ 2%): 3.81
--
compound: C=C(C)[C@@H]1CCC2=CC(=O)C[C@@H](C)[C@]2(C)C1
log Pow* (P′ 2%): 4.05
--
compound: CCCCOC(C)=O [Butylacetate]
log Pow* (P′ 2%): 1.66
--
compound: CCC/C=C/C=O
log Pow* (P′ 2%): 1.49
--
compound: CC(=O)C(C)=O
log Pow* (P′ 2%): −1.48
--
compound: CCCCCC1CCCC(=O)O1 (stereo not drawn)
log Pow* (P′ 2%): 2.34
--
compound: SCc1ccco1
log Pow* (P′ 2%): 1.80

// log Pow* (P′ 2%) lookup, compound = CCOC(=O)C(C)CC (stereo not drawn) [Ethylmethylbutyrate-2] , result: 2.30

----------
test-name: log Pow* calculated by Formula 2 from log Pow and the polarity parameter P′(x) of the ethanol/water mixture
Assignment: determine reported log Pow* (P′ 50%) for the given compounds.
Give bare numbers.

compound: C=Cc1ccc(O)c(OC)c1
log Pow* (P′ 50%): 1.26

compound: CCCCCC=O
log Pow* (P′ 50%): 0.43

compound: CC(C)=CCCC(C)=CC=O
log Pow* (P′ 50%): 2.22

compound: CCCSSC [Methylpropyldisulfide]
log Pow* (P′ 50%): 1.76

compound: CCCSSCCC [Dipropyldisulfide]
log Pow* (P′ 50%): 3.12

compound: CCCCCCCC=O
log Pow* (P′ 50%): 2.03

compound: CC(C)CCO
log Pow* (P′ 50%): −1.08

compound: CCCCCCOC(C)=O [Hexylacetate]
log Pow* (P′ 50%): 1.76

compound: CCCC(=O)OCC [Ethylbutyrate]
log Pow* (P′ 50%): 0.06

compound: CC/C=C\CC1C(=O)CCC1CC(=O)OC (centres unmarked) [Methyl jasmonate]
log Pow* (P′ 50%): 0.69

// log Pow* (P′ 50%) lookup, compound = C=CC(C)(O)CCC=C(C)C (centres unmarked) , result: 2.36

----------
test-name: log Pow* calculated by Formula 2 from log Pow and the polarity parameter P′(x) of the ethanol/water mixture
test-settings: solvent ethanol, proportion 50%
Assignment: determine reported log Pow* (P′ 50%) for the given compounds.

As a guide, the following entries are already answered.
compound: CC/C=C\CC1CCCC(=O)O1 (stereo not shown)
log Pow* (P′ 50%): 1.25
//
compound: CCC/C=C/CO
log Pow* (P′ 50%): 0.02
//
compound: CC(=O)/C=C/C1C(C)=CCCC1(C)C (stereo not shown)
log Pow* (P′ 50%): 3.08
//
compound: CCCCCC1CCCC(=O)O1 (stereo not shown)
log Pow* (P′ 50%): 1.17
//
compound: CC(=O)/C=C/C1=C(C)CCCC1(C)C
log Pow* (P′ 50%): 3.06

Quick one: give me log Pow* (P′ 50%) for each item below, same order please.
1. C=C(C)[C@@H]1CCC2=CC(=O)C[C@@H](C)[C@]2(C)C1
2. O=Cc1ccccc1
3. c1ccc2[nH]ccc2c1
4. CCCCOC(C)=O [Butylacetate]
5. CCC/C=C/C=O
6. O=Cc1ccco1
7. CC(=O)C(C)=O

[3.36, "−0.20", 0.73, 0.06, "−0.27", "−3.41", "−3.60"]

----------
test-name: log Pow* calculated by Formula 2 from log Pow and the polarity parameter P′(x) of the ethanol/water mixture
Entry flag: Criterion met if log Pow* (P′ 2%) reaches 2; Criterion not met if it does not.

compound: CCCCCCOC(C)=O [Hexylacetate]
class-label: Criterion met

Decide: is the reported value of log Pow* (P′ 2%) for CCCCCCCC=O [Octanal] equal to or greater than 2? Criterion met

Decide: is the reported value of log Pow* (P′ 2%) for CCCSSC [Methylpropyldisulfide] equal to or greater than 2? Criterion met

Decide: is the reported value of log Pow* (P′ 2%) for CCCC(=O)OCC [Ethylbutyrate] equal to or greater than 2? Criterion not met

Decide: is the reported value of log Pow* (P′ 2%) for "C=Cc1ccc(O)c(OC)c1" equal to or greater than 2? Criterion met

Decide: is the reported value of log Pow* (P′ 2%) for CC(C)CCO [3-mebutanol, 3-methylbutanol] equal to or greater than 2? Criterion not met

----------
Assignment: determine reported log Pow* (P′ 8%) for the given compounds.
test-name: log Pow* calculated by Formula 2 from log Pow and the polarity parameter P′(x) of the ethanol/water mixture
test-settings: solvent ethanol, proportion 8%
Numbers only.

compound: CC(=O)/C=C/C1=C(C)CCCC1(C)C
recorded-result: 3.66
--
compound: CC(=O)C(C)=O
recorded-result: −1.88
--
compound: CCCCCC1CCCC(=O)O1 (stereo not shown)
recorded-result: 2.12
--
compound: O=Cc1ccccc1
recorded-result: 1.19
--
compound: CCCCOC(C)=O [Butylacetate]
recorded-result: 1.35
--
compound: CCCCCCC1CCC(=O)O1 (stereo not shown)
recorded-result: 2.07
--
compound: Oc1ccccc1
recorded-result: 0.98
--
compound: CS
recorded-result: −0.48
--
compound: CCCCCC(=O)OC [Methylcapronate]
recorded-result: 1.98
--
compound: CC(=O)/C=C/C1C(C)=CCCC1(C)C (stereo not shown)
recorded-result: 3.67

Quick one: give me log Pow* (P′ 8%) for each item below, same order please.
1. O=Cc1ccco1
2. C/C=C/C(=O)C1=C(C)C=CCC1(C)C
3. SCc1ccco1

["−0.28", 4.23, 1.51]

----------
Assignment: determine reported log Pow* (P′ 60%) for the given molecules.
test-name: log Pow* calculated by Formula 2 from log Pow and the polarity parameter P′(x) of the ethanol/water mixture
One number for each entry.

molecule: CCCSSCCC [Dipropyldisulfide]
recorded-result: 3.04

molecule: CCCCCC=O
recorded-result: 0.27

molecule: CC(C)=CCCC(C)=CC=O
recorded-result: 2.11

Quick one: give me log Pow* (P′ 60%) for each item below, same order please.
1. C=CC(C)(O)CCC=C(C)C (centres unmarked)
2. CC(C)CCO
3. CCCCCCCC=O
4. C=Cc1ccc(O)c(OC)c1

1. 2.26
2. −1.34
3. 1.92
4. 1.13

Quick one: give me log Pow* (P′ 60%) for each item below, same order please.
1. CCCSSC [Methylpropyldisulfide]
2. CCCC(=O)OCC [Ethylbutyrate]
3. CCCCCCOC(C)=O [Hexylacetate]

1.64
−0.13
1.64

// log Pow* (P′ 60%) lookup, molecule = CC/C=C\CC1C(=O)CCC1CC(=O)OC (centres unmarked) [Methyl jasmonate] , result: 0.54

----------
Assignment: determine reported log Pow* (P′ 6%) for the given compounds.
test-name: log Pow* calculated by Formula 2 from log Pow and the polarity parameter P′(x) of the ethanol/water mixture
One number for each entry.

Quick one: give me log Pow* (P′ 6%) for each item below, same order please.
1. CCCSSCCC [Dipropyldisulfide]
2. CCCC(=O)OCC [Ethylbutyrate]
3. C=Cc1ccc(O)c(OC)c1
4. CC/C=C\CC1C(=O)CCC1CC(=O)OC (stereo not shown) [Methyl jasmonate]
5. CCCSSC [Methylpropyldisulfide]
6. CC(C)CCO [3-mebutanol, 3-methylbutanol]
7. CC(C)=CCCC(C)=CC=O [Citral]

[3.76, 1.45, 2.25, 1.85, 2.63, 0.84, 2.99]

----------
test-name: log Pow* calculated by Formula 2 from log Pow and the polarity parameter P′(x) of the ethanol/water mixture
test-settings: solvent ethanol, proportion 40%
Assignment: determine reported log Pow* (P′ 40%) for the given molecules.
One number for each entry.

Quick one: give me log Pow* (P′ 40%) for each item below, same order please.
1. CCCCOC(C)=O [Butylacetate]
2. CC(=O)C(C)=O
3. CS
4. CCC/C=C/C=O

1. 0.28
2. −3.31
3. −3.40
4. −0.03

Quick one: give me log Pow* (P′ 40%) for each item below, same order please.
1. SCc1ccco1
2. CCOC(=O)C(C)CC (stereo not shown) [Ethylmethylbutyrate-2]
3. O=Cc1ccco1
4. CC(=O)/C=C/C1=C(C)CCCC1(C)C

1. 0.51
2. 1.27
3. −2.88
4. 3.17

Quick one: give me log Pow* (P′ 40%) for each item below, same order please.
1. CCC/C=C/CO
2. CCCCCC(=O)OC [Methylcapronate]
3. CC1=CCC(C(C)(C)S)CC1 (stereo not shown)
4. C/C=C/C(=O)C1=C(C)C=CCC1(C)C
5. OCc1ccco1

1. 0.24
2. 1.15
3. 3.39
4. 3.80
5. −9.13

Origin of measurements: patent US8394442B2
